assay.notes: protease stability score; higher = more stable; yeast display proteolysis, trypsin and chymotrypsin;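 further: relative to predicted unfolded state with 0 unfolded-like and 1 meaning tenfold more protease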
metric.name: protease stability score

ordered_residues=HEDEHLMKRVAELIFRLLVTGDEDRMRDLLDPTTRMDINGKEFHGRDQVIEVWRRLIDHIRIEEVHLEDHDIYGDKVRWHMRIRTRQGDKQLHLETRFTADKFNGRWELQTVIFK metric_name="protease stability score" measured_result=1.64
ordered_residues=SEEEEMVKIADELIRRSWDTGDEDLFLHLADPNTRIFFNGRTVHGREEVEKMIRHMRIDHYELKRIDVYNGQVVIHGKIEITVNGVTKTHEVDIIIEKINGKWILRSIHHK metric_name="protease stability score" measured_result=1.11
ordered_residues=SEIDEIAHKMAKEWTKDFVTGDEDHWKRLADPNTRVHINGVELHGRETSSEFKEKLRRHMGVDHMELRVRHVDLFNGRVHMETELIYRVGDKEIRTETHVDLDIVNGRIKEVRYEIR metric_name="protease stability score" measured_result=0.734
